# target.or.system: GABAA receptors (benzodiazepine site, Ro15-1788 binding sites), rat cortex
# protocol.description: Ro15-1788 competition binding assay, rat cortex membranes
# measurement.conditions: displacement of 3H Ro15-1788, read-out: Ro15-1788 binding, K1
Ki listing for selected molecules.
Hi! Could you send only the number? It should be in nM, unit omitted.

Solved entries:
> print(dat)
                                   molecule  result.unit  experimental.value
1  COc1ccc(NC(=O)c2c[nH]c3c2C(=O)CC(C)(C)C3)c(F)c1           nM                  11
2     O=C(Nc1cccc(F)c1)c1c[nH]c2c(c1=O)CCC2           nM                 8.3

Kindly review the next molecule as well.
The recorded Ki with GABAA receptors (benzodiazepine site, Ro15-1788 binding sites), rat cortex for CC1CC(=O)c2c(C(=O)Nc3ccc(F)cc3)c[nH]c2C1 (stereo not drawn) was 24

====

# target.or.system: GABAA receptors (benzodiazepine site, Ro15-1788 binding sites), rat cortex
# protocol.description: Ro15-1788 competition binding assay, rat cortex membranes
# measurement.conditions: displacement of 3H Ro15-1788, read-out: Ro15-1788 binding, K1
pKi: −log10 of the molar value.
Is pKi at least 9? Then class 1. If not, class 0.

# count of solved cases: 2
> print(dat)
                                   molecule  class.assignment
1  O=c1[nH]c2c(n1-c1nc3ccc(F)c(F)c3o1)CCCCC2           class 0
2     O=c1c(-c2ccccc2F)nc2c[nH]c3ccccc3n1-2           class 0

Hi, just wondering whether `O=C(Nc1ccccc1)c1c[nH]c2c1C(=O)CCCC2` shows pKi of 9 or higher. class 0

# bool: pKi of CC(C)(C)OC(=O)c1ncn2c1C1CCCN1C(=O)c1c(Br)cccc1-2 (centres unmarked) [Ro16-6028, reference compound] >= 9 class 1

Test whether the molecule `c1cc2c(cc1-c1ncc3[nH]c4c(c3n1)CCCC4)OCO2` records pKi of 9 or higher. class 0

====

# target.or.system: GABAA receptors (benzodiazepine site, Ro15-1788 binding sites), rat cortex
# protocol.description: Ro15-1788 competition binding assay, rat cortex membranes
# measurement.conditions: displacement of 3H Ro15-1788, read-out: Ro15-1788 binding, K1
// assign Met if Ki falls strictly below 30 nM, else Not met (ties count as Not met)

> print(dat)
                                   compound                          target.or.system  class.assignment
1  O=C(Nc1ccc(OCCO)cc1)c1c[nH]c2c1C(=O)CCC2  GABAA receptors (benzodiazepine site, Ro15-1788 binding sites), rat cortex               Met
2  COc1ccc(F)c(-c2ncc3[nH]c4c(c3n2)CCCC4)c1  GABAA receptors (benzodiazepine site, Ro15-1788 binding sites), rat cortex           Not met
3  Cc1nnc2n1-c1ccc(Cl)cc1C(c1ccccc1)=NC2 [Alprazolam, reference compound]  GABAA receptors (benzodiazepine site, Ro15-1788 binding sites), rat cortex               Met
4  Cc1ccc(-c2nc3ccc(C)cn3c2CC(=O)N(C)C)cc1 [Zolpidem, reference compound]  GABAA receptors (benzodiazepine site, Ro15-1788 binding sites), rat cortex           Not met

Consider the additional compound presented here.
In the record for `O=c1c2c[nH]c3ccccc3n-2c(=O)n1-c1ccc(F)cc1` , is Ki less than 30 nM? Met

====

# target.or.system: α5β3γ2 GABAA subtype receptor (Homo sapiens, UniProt P18507+P31644)
# Sequence (P31644 32-462): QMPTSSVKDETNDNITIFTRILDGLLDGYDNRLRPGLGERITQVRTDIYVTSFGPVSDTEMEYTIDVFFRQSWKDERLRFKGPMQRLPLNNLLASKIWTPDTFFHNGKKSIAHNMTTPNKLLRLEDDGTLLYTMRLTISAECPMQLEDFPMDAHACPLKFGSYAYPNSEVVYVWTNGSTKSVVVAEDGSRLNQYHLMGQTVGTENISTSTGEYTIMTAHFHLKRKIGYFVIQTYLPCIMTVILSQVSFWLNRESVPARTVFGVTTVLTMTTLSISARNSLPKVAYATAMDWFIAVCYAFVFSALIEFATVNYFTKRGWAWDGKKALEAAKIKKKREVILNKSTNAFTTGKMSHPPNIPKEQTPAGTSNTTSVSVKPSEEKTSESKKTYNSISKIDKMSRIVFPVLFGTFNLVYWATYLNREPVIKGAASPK
# Sequence (P28472 26-473 partner): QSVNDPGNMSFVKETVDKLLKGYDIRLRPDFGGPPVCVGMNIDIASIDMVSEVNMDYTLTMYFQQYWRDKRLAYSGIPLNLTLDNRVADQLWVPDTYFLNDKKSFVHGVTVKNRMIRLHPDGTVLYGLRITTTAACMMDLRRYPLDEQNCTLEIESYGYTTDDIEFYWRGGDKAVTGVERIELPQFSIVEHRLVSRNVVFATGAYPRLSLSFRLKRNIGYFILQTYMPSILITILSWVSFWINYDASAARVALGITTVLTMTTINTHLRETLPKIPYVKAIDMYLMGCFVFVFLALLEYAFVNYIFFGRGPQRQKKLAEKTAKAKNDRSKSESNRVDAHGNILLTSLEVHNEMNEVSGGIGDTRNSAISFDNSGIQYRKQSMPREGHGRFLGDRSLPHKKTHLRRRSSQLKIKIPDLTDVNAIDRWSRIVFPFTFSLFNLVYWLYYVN
# Sequence (P18507 40-475): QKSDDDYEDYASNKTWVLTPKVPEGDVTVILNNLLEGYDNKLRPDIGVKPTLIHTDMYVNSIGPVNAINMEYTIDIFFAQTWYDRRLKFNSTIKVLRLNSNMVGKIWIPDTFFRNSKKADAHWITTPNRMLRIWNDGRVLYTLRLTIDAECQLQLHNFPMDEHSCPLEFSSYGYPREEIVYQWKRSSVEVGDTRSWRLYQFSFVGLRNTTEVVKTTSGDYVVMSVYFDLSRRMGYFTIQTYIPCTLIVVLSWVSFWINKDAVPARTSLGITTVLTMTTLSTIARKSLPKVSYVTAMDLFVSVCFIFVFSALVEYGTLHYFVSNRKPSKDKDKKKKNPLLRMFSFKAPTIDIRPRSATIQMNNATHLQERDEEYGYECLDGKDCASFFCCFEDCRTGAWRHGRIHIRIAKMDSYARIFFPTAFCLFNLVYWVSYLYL
# protocol.description: oocyte electrophysiology, two electrode voltage-clamp, potentiation of GABA current
# Assay type: cell-based
# measurement.conditions: Xenopus oocytes, human subunits, GABA EC10
Measured EC50 accompanies every entry in the list below.
Give a bare numeral; the unit nM is implied.

> print(dat)
                                   compound  experimental.value
1  CCOc1ccc(-n2c(=O)c3c[nH]c4ccccc4n-3c2=O)cc1                  88

Looking up CC(C)(C)OC(=O)c1ncn2c1C1CCCN1C(=O)c1c(Br)cccc1-2 (centres unmarked) [Ro16-6028, reference compound] , I see its EC50 listed as 3

====

# target.or.system: α3β3γ2 GABAA subtype receptor (Homo sapiens, UniProt P18507+P34903)
# Sequence (P34903 29-492): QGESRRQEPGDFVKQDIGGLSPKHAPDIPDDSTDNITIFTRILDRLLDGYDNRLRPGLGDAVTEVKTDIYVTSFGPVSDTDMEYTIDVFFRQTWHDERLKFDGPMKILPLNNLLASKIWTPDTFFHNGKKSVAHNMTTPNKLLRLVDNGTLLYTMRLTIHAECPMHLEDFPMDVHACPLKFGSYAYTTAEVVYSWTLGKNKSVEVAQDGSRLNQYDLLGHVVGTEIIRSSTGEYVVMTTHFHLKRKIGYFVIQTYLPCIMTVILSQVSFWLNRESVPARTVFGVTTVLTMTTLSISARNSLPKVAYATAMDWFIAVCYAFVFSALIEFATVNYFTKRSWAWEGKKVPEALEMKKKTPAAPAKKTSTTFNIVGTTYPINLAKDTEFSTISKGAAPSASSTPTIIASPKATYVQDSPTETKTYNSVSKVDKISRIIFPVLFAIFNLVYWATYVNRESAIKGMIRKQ
# Sequence (P28472 26-473 partner): as the sequence (P28472 26-473 partner) above
# Sequence (P18507 40-475): as the sequence (P18507 40-475) above
# protocol.description: oocyte electrophysiology, two electrode voltage-clamp, potentiation of GABA current
# Type: cell-based
# measurement.conditions: Xenopus oocytes, human subunits, GABA EC10
observable: oocyte electrophysiology maximum potentiation (%) α3β3γ2
Answer format: number, then unit.

Past entries and their recorded results:
> print(dat)
                                   compound  experimental.value
1  Cc1nnc2n1-c1ccc(Cl)cc1C(c1ccccc1)=NC2 [Alprazolam, reference compound]                774%
2     O=C(Nc1cccc(F)c1)c1c[nH]c2c(c1=O)CCC2                 44%
3  COc1ccc(NC(=O)c2c[nH]c3c2C(=O)CC(C)(C)C3)c(F)c1                 95%
4  O=c1[nH]c2c(n1-c1nc3ccc(F)c(F)c3o1)CCCCC2                 83%
5  O=c1c2c[nH]c3ccccc3n-2c(=O)n1-c1ccc(F)cc1                 23%

According to the records, this compound `O=C(Nc1ccccc1)c1c[nH]c2c1C(=O)CCCC2` displays oocyte electrophysiology maximum potentiation (%) α3β3γ2 of 14%

The compound listed as `O=c1c(-c2ccccc2F)nc2c[nH]c3ccccc3n1-2` shows oocyte electrophysiology maximum potentiation (%) α3β3γ2 equal to 39%

oocyte electrophysiology maximum potentiation (%) α3β3γ2 recorded for this compound, `COc1ccc(F)c(-c2ncc3[nH]c4c(c3n2)CCCC4)c1` , is 36%

Lab note: measured oocyte electrophysiology maximum potentiation (%) α3β3γ2 of CC(C)(C)OC(=O)c1ncn2c1C1CCCN1C(=O)c1c(Br)cccc1-2 (stereo not drawn) [Ro16-6028, reference compound] was 76%

====

# target.or.system: α5β3γ2 GABAA subtype receptor (Homo sapiens, UniProt P18507+P31644)
# protocol.description: oocyte electrophysiology, two electrode voltage-clamp, potentiation of GABA current
# Type: cell-based
# measurement.conditions: Xenopus oocytes, human subunits, GABA EC10
This section presents compounds with their documented oocyte electrophysiology maximum potentiation (%) α5β3γ2 values.
Please give a number only; it is taken to be in %.

> print(dat)
                                   compound  experimental.value
1  CC(C)(C)OC(=O)c1ncn2c1C1CCCN1C(=O)c1c(Br)cccc1-2 (centres unmarked) [Ro16-6028, reference compound]                  64
2  COc1ccc(NC(=O)c2c[nH]c3c2C(=O)CC(C)(C)C3)c(F)c1                  42
3  O=C1C2C=Nc3ccccc3C2=NN1c1ccccc1 (centres unmarked) [CGS 8216, reference compound]                 −39
4  CNCc1ccc(NC(=O)c2c[nH]c3c2C(=O)CCCC3)cc1                  38
5   CCOc1ccc(NC(=O)c2c[nH]c3c2C(=O)CCC3)cc1                  38
6  Cc1nnc2n1-c1ccc(Cl)cc1C(c1ccccc1)=NC2 [Alprazolam, reference compound]                 206
7  CCOc1ccc(-n2c(=O)c3c[nH]c4ccccc4n-3c2=O)cc1                  15

Okay, next one:
Sure, the documented oocyte electrophysiology maximum potentiation (%) α5β3γ2 for CC1CC(=O)c2c(C(=O)Nc3ccc(F)cc3)c[nH]c2C1 (centres unmarked) is 16

====

# System: rats
# protocol.description: Porsolt forced swim test
# Type: in vivo
# measurement.conditions: rat, administered IV, statistically significant response
# Excerpt: The effects measured in this model have been correlated to antidepressant efficacy for drugs. The paradigm of this model is that an effective antidepressant compound will cause a rat to make greater attempts to escape a water-filled cylinder than a rat given vehicle only. Animals used in this study were non-naive male Sprague Dawley Rats (SASCO, St. Louis) weighing between 280-350 grams. The test apparatus consists of 6 clear Plexiglas cylinders 40 cm high×19 cm wide. […]
observable: Porsolt swim test, minimal efficacious dose (mg/kg)
Write the value in mg/kg as a bare number.

// known answers, use as guide
> print(dat)
                                   compound  experimental.value
1  CC(C)(C)OC(=O)c1ncn2c1C1CCCN1C(=O)c1c(Br)cccc1-2 (stereo not shown) [Ro16-6028, reference compound]                   1
2  CNCc1ccc(NC(=O)c2c[nH]c3c2C(=O)CCCC3)cc1                  20
3  CCOc1ccc(-n2c(=O)c3c[nH]c4ccccc4n-3c2=O)cc1                  20

Now examine the next entry.
Param item: `CCOc1ccc(NC(=O)c2c[nH]c3c2C(=O)CCC3)cc1` ; param system: rats; output Porsolt swim test, minimal efficacious dose: 20
